# subject_of_test: Tyk2 (Homo sapiens (Human), UniProt P29597)
# Sequence (P29597 whole entry): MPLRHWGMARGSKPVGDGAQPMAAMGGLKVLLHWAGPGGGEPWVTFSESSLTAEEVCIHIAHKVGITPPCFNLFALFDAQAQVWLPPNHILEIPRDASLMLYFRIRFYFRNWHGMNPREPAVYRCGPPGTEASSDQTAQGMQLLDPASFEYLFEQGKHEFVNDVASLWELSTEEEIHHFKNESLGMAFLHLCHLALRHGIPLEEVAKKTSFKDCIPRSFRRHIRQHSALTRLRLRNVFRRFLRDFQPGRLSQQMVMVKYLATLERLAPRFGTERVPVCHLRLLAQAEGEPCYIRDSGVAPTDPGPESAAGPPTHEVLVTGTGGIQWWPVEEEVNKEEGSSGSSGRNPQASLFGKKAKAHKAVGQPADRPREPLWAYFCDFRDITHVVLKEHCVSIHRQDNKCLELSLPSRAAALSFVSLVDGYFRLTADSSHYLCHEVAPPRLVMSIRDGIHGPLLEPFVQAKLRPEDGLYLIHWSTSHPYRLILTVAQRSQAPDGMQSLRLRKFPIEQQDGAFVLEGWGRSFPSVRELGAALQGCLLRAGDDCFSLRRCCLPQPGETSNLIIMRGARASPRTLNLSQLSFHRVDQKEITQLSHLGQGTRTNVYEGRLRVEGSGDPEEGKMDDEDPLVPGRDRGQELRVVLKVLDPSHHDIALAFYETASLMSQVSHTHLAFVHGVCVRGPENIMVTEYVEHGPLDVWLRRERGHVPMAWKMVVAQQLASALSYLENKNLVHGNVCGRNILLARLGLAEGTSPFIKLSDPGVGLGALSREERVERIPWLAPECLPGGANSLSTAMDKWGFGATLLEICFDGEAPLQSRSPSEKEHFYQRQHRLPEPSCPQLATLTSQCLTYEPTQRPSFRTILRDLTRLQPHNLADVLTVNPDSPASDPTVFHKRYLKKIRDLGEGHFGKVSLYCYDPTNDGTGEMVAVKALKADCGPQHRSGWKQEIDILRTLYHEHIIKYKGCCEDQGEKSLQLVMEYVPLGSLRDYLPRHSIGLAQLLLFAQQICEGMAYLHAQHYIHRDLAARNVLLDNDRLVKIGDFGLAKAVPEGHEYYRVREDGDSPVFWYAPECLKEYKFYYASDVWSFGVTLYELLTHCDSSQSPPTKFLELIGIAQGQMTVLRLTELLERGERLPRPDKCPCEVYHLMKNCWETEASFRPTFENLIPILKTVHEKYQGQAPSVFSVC
# test: Tyk2 enzyme assay (Assay Example^b 1)
# measurement_parameters: IC50 (μM) TYK2, ATP 100 μM
measured_property: IC50

Example entries begin here.
[[record]]
compound = "N#CCn1c(=O)c2cnc3[nH]ccc3c2n(C2CCCCC2)c1=O [Synthetic Example^b 137]"
reported_value = "> 1 µM"

[[record]]
compound = "N#CCC[C@H]1CC[C@H](n2c(=O)[nH]c(=O)c3cnc4[nH]ccc4c32)CC1 [Synthetic Example^b 134]"
reported_value = "0.032 µM"

[[record]]
compound = "O=c1[nH]c(=O)n(C2CCN(CCNC3CCNCC3)CC2)c2c1cnc1[nH]ccc12 [compound 111]"
reported_value = "> 1 µM"


Could you tell me which IC50 is on file for O=c1[nH]c(=O)n(C2CCN(CCN3CCOCC3)CC2)c2c1cnc1[nH]ccc12 [compound 108] ?
> 1 µM

Could you tell me which IC50 is on file for O=c1[nH]c(=O)n(C2CCN(Cc3ccc(Br)s3)CC2)c2c1cnc1[nH]ccc12 [compound 89] ?
> 1 µM

---

# subject_of_test: JAK3 (Homo sapiens (Human))
# Sequence (P52333 whole entry): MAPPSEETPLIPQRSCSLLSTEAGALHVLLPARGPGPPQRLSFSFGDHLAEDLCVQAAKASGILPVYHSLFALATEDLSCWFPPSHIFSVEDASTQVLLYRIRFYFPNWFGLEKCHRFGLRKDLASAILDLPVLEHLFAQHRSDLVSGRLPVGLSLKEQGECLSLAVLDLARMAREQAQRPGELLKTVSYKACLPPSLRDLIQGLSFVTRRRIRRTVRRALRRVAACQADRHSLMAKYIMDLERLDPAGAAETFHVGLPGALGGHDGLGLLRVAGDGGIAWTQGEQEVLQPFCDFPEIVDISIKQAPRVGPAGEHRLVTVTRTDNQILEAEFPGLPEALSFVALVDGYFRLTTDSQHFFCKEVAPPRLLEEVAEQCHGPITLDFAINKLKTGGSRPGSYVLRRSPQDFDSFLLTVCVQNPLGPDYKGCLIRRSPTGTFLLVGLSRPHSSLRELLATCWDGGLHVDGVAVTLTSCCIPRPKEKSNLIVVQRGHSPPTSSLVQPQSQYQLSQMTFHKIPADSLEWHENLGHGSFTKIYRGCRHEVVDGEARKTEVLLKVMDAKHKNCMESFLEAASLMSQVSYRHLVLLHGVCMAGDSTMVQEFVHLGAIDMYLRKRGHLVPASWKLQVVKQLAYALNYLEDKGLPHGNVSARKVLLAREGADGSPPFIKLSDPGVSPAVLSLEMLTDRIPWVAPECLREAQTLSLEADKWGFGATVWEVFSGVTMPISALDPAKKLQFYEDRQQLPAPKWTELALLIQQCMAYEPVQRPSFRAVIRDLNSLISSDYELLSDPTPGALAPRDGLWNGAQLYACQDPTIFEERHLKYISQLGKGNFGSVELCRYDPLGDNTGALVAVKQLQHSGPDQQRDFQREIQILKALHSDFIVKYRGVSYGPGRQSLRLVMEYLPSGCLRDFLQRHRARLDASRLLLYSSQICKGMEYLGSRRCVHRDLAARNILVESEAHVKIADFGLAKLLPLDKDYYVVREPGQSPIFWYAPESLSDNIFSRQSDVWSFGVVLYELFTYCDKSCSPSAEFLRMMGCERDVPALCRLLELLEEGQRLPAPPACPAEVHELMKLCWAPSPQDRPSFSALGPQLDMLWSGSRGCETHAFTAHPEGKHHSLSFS
# test: JAK3 enzyme assay (Assay Example^b 1)
# measurement_parameters: IC50 (μM) JAK3, Table^b 80; ATP 100 μM
measured_property: IC50

Example entries begin here.
[[record]]
compound = "CC1CCN(C(=O)C2CCC(C(C)(C)C)CC2)CC1n1ccc(=O)c2cnc3[nH]ccc3c21 (single isomer, unassigned) [Synthetic Example^b 48b]"
reported_value = "0.36 µM"

[[record]]
compound = "O=c1ccn(C2CCN(Cc3ccc(Br)s3)CC2)c2c1cnc1[nH]ccc12"
reported_value = "0.031 µM"

[[record]]
compound = "O=c1ccn(C2CCN(Cc3cnc(Br)s3)CC2)c2c1cnc1[nH]ccc12"
reported_value = "0.62 µM"


Could you tell me which IC50 is on file for O=c1ccn(C2CCN(Cc3ccc4[nH]ccc4c3)CC2)c2c1cnc1[nH]ccc12 ?
> 1 µM

Could you tell me which IC50 is on file for O=c1ccn(C2CCN(Cc3ccc(Cl)c(Cl)c3)CC2)c2c1cnc1[nH]ccc12 ?
> 1 µM

Could you tell me which IC50 is on file for O=c1[nH]c(=O)n(C2CCN(Cc3ccc(C(F)(F)F)cc3)CC2)c2c1cnc1[nH]ccc12 ?
> 1 µM

Could you tell me which IC50 is on file for O=C1NCc2cnc3[nH]ccc3c2N1C1CCN(S(=O)(=O)Cc2ccccc2)CC1 ?
> 1 µM

Could you tell me which IC50 is on file for O=C(c1ccc(Cl)s1)N1CCC(n2ccc(=O)c3cnc4[nH]ccc4c32)CC1 ?
> 1 µM

---

Each entry below lists one item and its recorded IC50 value.
# subject_of_test: Tyk2 (Homo sapiens (Human))
# test: Enzyme assay (Assay Example^a 1), Tyk2
# Assay type: biochemical
# measurement_parameters: ATP 100 μM
Hi! Could you send only the number? It should be in µM, unit omitted.

Example entries begin here.
[[record]]
given_smiles = "O=C(NC[C@@H](O)c1ccccc1)[C@H]1CC[C@H](c2nnn3cnc4[nH]ccc4c23)CC1"
subject_of_test = "Tyk2 (Homo sapiens (Human))"
display_unit = "µM"
reported_value = 0.46

[[record]]
given_smiles = "CC1(O)CN(C[C@H]2CC[C@H](c3nnn4cnc5[nH]ccc5c34)CC2)C1"
subject_of_test = "Tyk2 (Homo sapiens (Human))"
display_unit = "µM"
reported_value = 0.13

[[record]]
given_smiles = "OCCN(CCO)C[C@H]1CC[C@H](c2nnn3cnc4[nH]ccc4c23)CC1"
subject_of_test = "Tyk2 (Homo sapiens (Human))"
display_unit = "µM"
reported_value = 0.59

[[record]]
given_smiles = "O=S(=O)(C[C@H]1CC[C@H](c2nnn3cnc4[nH]ccc4c23)CC1)C(F)(F)F"
subject_of_test = "Tyk2 (Homo sapiens (Human))"
display_unit = "µM"
reported_value = 0.03


Next, consider the following compound.
What IC50 appears in the records for this compound with Tyk2 (Homo sapiens (Human))? OC1(c2ccc(Cl)c(C(F)(F)F)c2)CCN(C[C@H]2CC[C@H](c3nnn4cnc5[nH]ccc5c34)CC2)CC1
0.31
